# assay-system: KiSS-1 receptor (Homo sapiens)
# protocol-text: Binding affinity to human KISS1R expressed in CHO cell membranes
Non-standard residues stand in square brackets, D forms with d. Residues, ends and D or L forms follow the SMILES beside them. 2Nal = N[C@@H](Cc1ccc2ccccc2c1)C(=O)O; Arg(Me) = CNC(=N)NCCC[C@H](N)C(=O)O; azaGly = NNC(=O)O
Ki less than 0.1 nM is Met; Ki greater than or equal to 0.1 nM is Not met.

compound: CNC(N)=NCCC[C@H](NC(=O)[C@H](CC(C)C)NC(=O)NNC(=O)[C@H](Cc1ccccc1)NC(=O)[C@H](CO)NC(=O)[C@H](CC(N)=O)NC(=O)[C@@H](NC(=O)[C@@H](CC(N)=O)NC(=O)[C@H](N)Cc1ccc(O)cc1)[C@@H](C)O)C(=O)N[C@@H](Cc1ccccc1)C(N)=O
assay-system: KiSS-1 receptor (Homo sapiens)
qualitative-label: Not met

compound: CC[C@H](C)[C@H](NC(=O)[C@H](N)Cc1ccc(O)cc1)C(=O)N[C@@H](CC(N)=O)C(=O)N[C@@H](CO)C(=O)N[C@@H](Cc1ccccc1)C(=O)NNC(=O)N[C@@H](CC(C)C)C(=O)N[C@@H](CCCNC(=N)NC)C(=O)N[C@@H](Cc1ccccc1)C(N)=O (H-[dY]INSF[azaGly]L[Arg(Me)]F-NH2)
assay-system: KiSS-1 receptor (Homo sapiens)
qualitative-label: Not met

compound: CNC(N)=NCCC[C@H](NC(=O)[C@H](CC(C)C)NC(=O)NNC(=O)[C@H](Cc1ccccc1)NC(=O)[C@H](CO)NC(=O)[C@H](CC(N)=O)NC(=O)[C@H](Cc1c[nH]c2ccccc12)NC(=O)[C@H](N)Cc1cccnc1)C(=O)N[C@@H](Cc1ccccc1)C(N)=O
assay-system: KiSS-1 receptor (Homo sapiens)
qualitative-label: Not met

compound: CNC(N)=NCCC[C@H](NC(=O)[C@H](CC(C)C)NC(=O)NNC(=O)[C@H](Cc1ccccc1)NC(=O)[C@H](CO)NC(=O)[C@H](CC(N)=O)NC(=O)[C@H](CO)NC(=O)[C@H](N)Cc1ccc(O)cc1)C(=O)N[C@@H](Cc1ccccc1)C(N)=O (H-[dY]SNSF[azaGly]L[Arg(Me)]F-NH2)
assay-system: KiSS-1 receptor (Homo sapiens)
qualitative-label: Not met

compound: CNC(N)=NCCC[C@H](NC(=O)[C@H](CC(C)C)NC(=O)NNC(=O)[C@H](Cc1ccccc1)NC(=O)[C@H](CO)NC(=O)[C@H](CC(N)=O)NC(=O)[C@H](Cc1ccc2ccccc2c1)NC(=O)[C@H](N)Cc1ccc(O)cc1)C(=O)N[C@@H](Cc1ccccc1)C(N)=O (H-[dY][2Nal]NSF[azaGly]L[Arg(Me)]F-NH2)
assay-system: KiSS-1 receptor (Homo sapiens)
qualitative-label: Met

compound: CNC(N)=NCCC[C@H](NC(=O)[C@H](CC(C)C)NC(=O)NNC(=O)[C@H](Cc1ccccc1)NC(=O)[C@H](CO)NC(=O)[C@H](CC(N)=O)NC(=O)[C@H](Cc1ccncc1)NC(=O)[C@@H](CC(N)=O)NC(=O)[C@H](N)Cc1ccc(O)cc1)C(=O)N[C@@H](Cc1ccccc1)C(N)=O
assay-system: KiSS-1 receptor (Homo sapiens)
qualitative-label: Not met

compound: CC(C)C[C@H](NC(=O)NNC(=O)[C@H](Cc1ccccc1)NC(=O)[C@H](CO)NC(=O)[C@H](CC(N)=O)NC(=O)[C@H](Cc1c[nH]c2ccccc12)NC(=O)[C@H](CC(N)=O)NC(=O)[C@@H](N)Cc1ccc(O)cc1)C(=O)N[C@@H](CCCNC(=N)N)C(=O)N[C@@H](Cc1ccccc1)C(N)=O
assay-system: KiSS-1 receptor (Homo sapiens)
qualitative-label: Met

----------
# assay-system: KiSS-1 receptor (Homo sapiens, UniProt Q969F8)
# Sequence (Q969F8 whole entry): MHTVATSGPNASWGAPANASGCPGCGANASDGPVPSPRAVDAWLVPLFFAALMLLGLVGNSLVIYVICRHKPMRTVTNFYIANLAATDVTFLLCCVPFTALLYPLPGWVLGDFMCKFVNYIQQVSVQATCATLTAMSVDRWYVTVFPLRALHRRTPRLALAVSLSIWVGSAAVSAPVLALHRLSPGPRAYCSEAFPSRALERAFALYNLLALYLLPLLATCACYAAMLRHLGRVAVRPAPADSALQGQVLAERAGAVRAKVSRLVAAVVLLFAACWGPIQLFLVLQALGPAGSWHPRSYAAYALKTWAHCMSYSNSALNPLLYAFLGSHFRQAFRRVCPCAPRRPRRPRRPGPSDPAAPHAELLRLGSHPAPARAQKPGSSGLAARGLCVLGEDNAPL
# protocol-text: Binding affinity to human KISS1R expressed in CHO cell membranes
Ki values for the compounds below.
attribute-measured: Ki (nM)

smiles-data: CNC(N)=NCCC[C@H](NC(=O)[C@H](CC(C)C)NC(=O)NNC(=O)[C@H](Cc1ccccc1)NC(=O)[C@H](CO)NC(=O)[C@H](CC(N)=O)NC(=O)[C@H](Cc1ccncc1)NC(=O)[C@@H](CC(N)=O)NC(=O)[C@@H](N)Cc1ccc(O)cc1)C(=O)N[C@@H](Cc1ccccc1)C(N)=O
assay-system: KiSS-1 receptor (Homo sapiens, UniProt Q969F8)
attribute-measured: Ki
result: 0.21
//
smiles-data: CNC(N)=NCCC[C@H](NC(=O)[C@H](CC(C)C)NC(=O)NNC(=O)[C@H](Cc1ccccc1)NC(=O)[C@H](CO)NC(=O)[C@H](CC(N)=O)NC(=O)[C@H](Cc1ccncc1)NC(=O)[C@H](CC(N)=O)NC(=O)[C@H](N)Cc1ccc(O)cc1)C(=O)N[C@@H](Cc1ccccc1)C(N)=O
assay-system: KiSS-1 receptor (Homo sapiens, UniProt Q969F8)
attribute-measured: Ki
result: 0.12

----------
# assay-system: KiSS-1 receptor (Homo sapiens, UniProt Q969F8)
# protocol-text: Agonist activity at recombinant human KISS1R expressed in CHO cells assessed as intracellular calcium mobilization incubated for 30 mins at 37 degC and 30 mins at room temperature by Fluo-4 NW staining-based FLIPR assay relative to Metastin (45 to 54)
# Format: functional, cell-based
Non-standard residues stand in square brackets, D forms with d. Residues, ends and D or L forms follow the SMILES beside them. 2Nal = N[C@@H](Cc1ccc2ccccc2c1)C(=O)O; Arg(Me) = CNC(=N)NCCC[C@H](N)C(=O)O; d3Pal = N[C@H](Cc1cccnc1)C(=O)O; d4Pal = N[C@H](Cc1ccncc1)C(=O)O; Cha = N[C@@H](CC1CCCCC1)C(=O)O; azaGly = NNC(=O)O
We begin with a simple list: items and their reported fold change (FC).

compound: CNC(=N)NCCC[C@H](NC(=O)[C@H](CC(C)C)NC(=O)NNC(=O)[C@H](Cc1ccccc1)NC(=O)[C@H](CO)NC(=O)[C@H](CC(N)=O)NC(=O)[C@H](Cc1ccncc1)NC(=O)[C@@H](CC(N)=O)NC(=O)[C@@H](N)Cc1ccc(O)cc1)C(=O)N[C@@H](Cc1ccccc1)C(N)=O
fold change (FC): 2.7

compound: CNC(=N)NCCC[C@H](NC(=O)[C@H](CC(C)C)NC(=O)NNC(=O)[C@H](Cc1ccccc1)NC(=O)[C@H](CO)NC(=O)[C@H](CC(N)=O)NC(=O)[C@@H](Cc1c[nH]c2ccccc12)NC(=O)[C@H](CC(N)=O)NC(=O)[C@H](N)Cc1ccc(O)cc1)C(=O)N[C@@H](Cc1ccccc1)C(N)=O
fold change (FC): 3.7

compound: CNC(=N)NCCC[C@H](NC(=O)[C@H](CC(C)C)NC(=O)NNC(=O)[C@H](Cc1ccccc1)NC(=O)[C@H](CO)NC(=O)[C@H](CC(N)=O)NC(=O)[C@H](Cc1ccncc1)NC(=O)[C@H](CC(N)=O)NC(=O)[C@H](N)Cc1ccc(O)cc1)C(=O)N[C@@H](Cc1ccccc1)C(N)=O
fold change (FC): 5

compound: CNC(=N)NCCC[C@H](NC(=O)[C@H](CC(C)C)NC(=O)NNC(=O)[C@H](Cc1ccccc1)NC(=O)[C@H](CO)NC(=O)[C@H](CC(N)=O)NC(=O)[C@H](CC1CCCCC1)NC(=O)[C@@H](CC(N)=O)NC(=O)[C@H](N)Cc1cccnc1)C(=O)N[C@@H](Cc1ccccc1)C(N)=O (H-[d3Pal][dN][Cha]NSF[azaGly]L[Arg(Me)]F-NH2)
fold change (FC): 10

compound: CNC(=N)NCCC[C@H](NC(=O)[C@H](CC(C)C)NC(=O)NNC(=O)[C@H](Cc1ccccc1)NC(=O)[C@H](CO)NC(=O)[C@H](CC(N)=O)NC(=O)[C@H](Cc1c[nH]c2ccccc12)NC(=O)[C@@H](CO)NC(=O)[C@H](N)Cc1ccc(O)cc1)C(=O)N[C@@H](Cc1ccccc1)C(N)=O
fold change (FC): 3.7

compound: CNC(=N)NCCC[C@H](NC(=O)[C@H](CC(C)C)NC(=O)NNC(=O)[C@H](Cc1ccccc1)NC(=O)[C@H](CO)NC(=O)[C@H](CC(N)=O)NC(=O)[C@@H](Cc1c[nH]c2ccccc12)NC(=O)[C@H](N)Cc1ccc(O)cc1)C(=O)N[C@@H](Cc1ccccc1)C(N)=O (H-[dY][dW]NSF[azaGly]L[Arg(Me)]F-NH2)
fold change (FC): 4.5

compound: CNC(=N)NCCC[C@H](NC(=O)[C@H](CC(C)C)NC(=O)NNC(=O)[C@H](Cc1ccccc1)NC(=O)[C@H](CO)NC(=O)[C@H](CC(N)=O)NC(=O)[C@@H](Cc1ccncc1)NC(=O)[C@H](CC(N)=O)NC(=O)[C@H](N)Cc1ccc(O)cc1)C(=O)N[C@@H](Cc1ccccc1)C(N)=O
fold change (FC): 3.6

compound: CNC(=N)NCCC[C@H](NC(=O)[C@H](CC(C)C)NC(=O)NNC(=O)[C@H](Cc1ccccc1)NC(=O)[C@H](CO)NC(=O)[C@H](CC(N)=O)NC(=O)[C@H](CC1CCCCC1)NC(=O)[C@@H](CC(N)=O)NC(=O)[C@H](N)Cc1ccc(O)cc1)C(=O)N[C@@H](Cc1ccccc1)C(N)=O (H-[dY][dN][Cha]NSF[azaGly]L[Arg(Me)]F-NH2)
fold change (FC): 17

compound: CNC(=N)NCCC[C@H](NC(=O)[C@H](CC(C)C)NC(=O)NNC(=O)[C@H](Cc1ccccc1)NC(=O)[C@H](CO)NC(=O)[C@H](CC(N)=O)NC(=O)[C@@H](Cc1ccncc1)NC(=O)[C@H](N)Cc1ccc(O)cc1)C(=O)N[C@@H](Cc1ccccc1)C(N)=O [KISS1-305] (H-[dY][d4Pal]NSF[azaGly]L[Arg(Me)]F-NH2)
fold change (FC): 4.8

compound: CNC(=N)NCCC[C@H](NC(=O)[C@H](CC(C)C)NC(=O)NNC(=O)[C@H](Cc1ccccc1)NC(=O)[C@H](CO)NC(=O)[C@H](CC(N)=O)NC(=O)[C@H](Cc1ccccc1)NC(=O)[C@@H](CC(N)=O)NC(=O)[C@H](N)Cc1ccc(O)cc1)C(=O)N[C@@H](Cc1ccccc1)C(N)=O (H-[dY][dN]FNSF[azaGly]L[Arg(Me)]F-NH2)
fold change (FC): 1.5

compound: CNC(=N)NCCC[C@H](NC(=O)[C@H](CC(C)C)NC(=O)NNC(=O)[C@H](Cc1ccccc1)NC(=O)[C@H](CO)NC(=O)[C@H](CC(N)=O)NC(=O)[C@H](Cc1ccc2ccccc2c1)NC(=O)[C@H](N)Cc1ccc(O)cc1)C(=O)N[C@@H](Cc1ccccc1)C(N)=O (H-[dY][2Nal]NSF[azaGly]L[Arg(Me)]F-NH2)
fold change (FC): 6.4

compound: CC(C)C[C@H](NC(=O)NNC(=O)[C@H](Cc1ccccc1)NC(=O)[C@H](CO)NC(=O)[C@H](CC(N)=O)NC(=O)[C@H](Cc1c[nH]c2ccccc12)NC(=O)[C@H](CC(N)=O)NC(=O)[C@@H](N)Cc1ccc(O)cc1)C(=O)N[C@@H](CCCNC(=N)N)C(=O)N[C@@H](Cc1ccccc1)C(N)=O
fold change (FC): 1.7

compound: CNC(=N)NCCC[C@H](NC(=O)[C@H](CC(C)C)NC(=O)NNC(=O)[C@H](Cc1ccccc1)NC(=O)[C@H](CO)NC(=O)[C@H](CC(N)=O)NC(=O)[C@H](Cc1ccccc1)NC(=O)[C@H](N)Cc1ccc(O)cc1)C(=O)N[C@@H](Cc1ccccc1)C(N)=O
fold change (FC): 7.7
